Sourced from the supplement of paper PMC11061612

Tested on: K5 (Thyroid Gland Carcinoma)
TEST DESCRIPTION: Bliss excess, mean over the matrix (fraction); higher = more synergy;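 also: after 72 h of two-drug dosing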
MEASURED ENDPOINT: Bliss excess
One number for each entry.

Consider the reported Bliss excess for these molecules:
Observed Bliss excess on K5 (Thyroid Gland Carcinoma), entry CN(CCO)CC[C@H](CSc1ccccc1)Nc1ccc(S(=O)(=O)NC(=O)c2ccc(N3CCC([C@@H](O)c4ccccc4-c4ccc(Cl)cc4)CC3)cc2)cc1S(=O)(=O)C(F)(F)F [AZD4320] + C=CCn1c(=O)c2cnc(Nc3ccc(N4CCN(C)CC4)cc3)nc2n1-c1cccc(C(C)(C)O)n1 [AZD1775] (first compound max 1 µM, partner max 1 µM) , equals 0.0069

Observed Bliss excess on K5 (Thyroid Gland Carcinoma), entry CCc1c2c(nc3ccc(O)cc13)-c1cc3c(c(=O)n1C2)COC(=O)[C@]3(O)CC [SN-38] + O=C(c1cc(Cc2n[nH]c(=O)c3ccccc23)ccc1F)N1CCN(C(=O)C2CC2)CC1 [Olaparib] (first compound max 0.3 µM, 7x7, partner max 10 µM) , equals 0.0566

Next:
Observed Bliss excess on K5 (Thyroid Gland Carcinoma), entry CN(CCO)CC[C@H](CSc1ccccc1)Nc1ccc(S(=O)(=O)NC(=O)c2ccc(N3CCC([C@@H](O)c4ccccc4-c4ccc(Cl)cc4)CC3)cc2)cc1S(=O)(=O)C(F)(F)F [AZD4320] + CS(=O)(=O)CCNCc1ccc(-c2ccc3ncnc(Nc4ccc(OCc5cccc(F)c5)c(Cl)c4)c3c2)o1 [Lapatinib] (first compound max 1 µM, 7x7, partner max 10 µM) , equals 0.0213

---

Test system: TE-4 (Esophageal Squamous Cell Carcinoma)
TEST DESCRIPTION: Bliss excess, mean over the matrix (fraction); higher = more synergy
Hi there, I'd appreciate the recorded Bliss excess for every entry that follows.

// Bliss excess value for CN(CCO)CC[C@H](CSc1ccccc1)Nc1ccc(S(=O)(=O)NC(=O)c2ccc(N3CCC([C@@H](O)c4ccccc4-c4ccc(Cl)cc4)CC3)cc2)cc1S(=O)(=O)C(F)(F)F [AZD4320] + Cc1cc2ncnn2cc1Nc1ncc2c(n1)n(C1CCOCC1)c(=O)n2C [AZD7648] (first compound max 1 µM, 7x7, partner max 10 µM) : -0.0202

// Bliss excess value for COc1nnc2ccc(N3CCC(c4ccc(OCCN5CCN(C)C(=O)[C@H]5C)cc4)CC3)nn12 [AZD5153] + Cn1cnc2c(F)c(Nc3ccc(Br)cc3Cl)c(C(=O)NOCCO)cc21 [Selumetinib] (first compound max 1 µM, 7x7, partner max 10 µM) : 0.0311

Return reported Bliss excess values for all items listed beneath this line.
1. NC1(C(=O)N[C@@H](CCO)c2ccc(Cl)cc2)CCN(c2ncnc3[nH]ccc23)CC1 [Capivasertib] + CC(=O)c1c(C)c2cnc(Nc3ccc(N4CCNCC4)cn3)nc2n(C2CCCC2)c1=O [Palbociclib] (first compound max 10 µM, 7x7, partner max 10 µM)
2. C=CCn1c(=O)c2cnc(Nc3ccc(N4CCN(C)CC4)cc3)nc2n1-c1cccc(C(C)(C)O)n1 [AZD1775] + C[C@@H]1COCCN1C2=NC(=NC(=C2)C3(CC3)[S@](=N)(=O)C)C4=C5C=CNC5=NC=C4 [AZD6738] (first compound max 1 µM, partner max 10 µM)
3. CCN(CCO)CCCOc1ccc2c(Nc3cc(CC(=O)Nc4cccc(F)c4)[nH]n3)ncnc2c1 [AZD2811] + C=CCn1c(=O)c2cnc(Nc3ccc(N4CCN(C)CC4)cc3)nc2n1-c1cccc(C(C)(C)O)n1 [AZD1775] (first compound max 1 µM, partner max 1 µM)
4. COc1nnc2ccc(N3CCC(c4ccc(OCCN5CCN(C)C(=O)[C@H]5C)cc4)CC3)nn12 [AZD5153] + CC1(C)CCC(CN2CCN(c3ccc(C(=O)NS(=O)(=O)c4ccc(NCC5CCOCC5)c([N+](=O)[O-])c4)c(Oc4cnc5[nH]ccc5c4)c3)CC2)=C(c2ccc(Cl)cc2)C1 [Venetoclax] (first compound max 1 µM, 7x7, partner max 1 µM)
5. CC(=O)c1c(C)c2cnc(Nc3ccc(N4CCNCC4)cn3)nc2n(C2CCCC2)c1=O [Palbociclib] + CC1(C)CCC(CN2CCN(c3ccc(C(=O)NS(=O)(=O)c4ccc(NCC5CCOCC5)c([N+](=O)[O-])c4)c(Oc4cnc5[nH]ccc5c4)c3)CC2)=C(c2ccc(Cl)cc2)C1 [Venetoclax] (first compound max 10 µM, 7x7, partner max 1 µM)

## Output
[0.0094, 0.0485, -0.0057, -0.0291, -0.0113]
